assayed-target: BCL-2 (UniProt P10415 1-239, biotin)
Sequence (P10415 1-207): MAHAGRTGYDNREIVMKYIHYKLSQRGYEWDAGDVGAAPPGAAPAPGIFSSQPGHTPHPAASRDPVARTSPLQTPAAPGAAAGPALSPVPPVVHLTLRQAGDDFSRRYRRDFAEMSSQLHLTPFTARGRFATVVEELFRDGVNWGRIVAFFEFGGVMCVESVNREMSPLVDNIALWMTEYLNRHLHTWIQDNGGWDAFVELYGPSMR
assay-method-text: BLI
measured-attribute: Kd (nM)

binder="BAK-CDP02 (BAK-targeting computationally designed protein 02 of 11) (designed binder) GADPKKVLDKAKDQAENVVRKLKQILEELYKEARKLDLTQDEKIELILRYIAAMLAAIGDILEAIRQAKEEADKLKKAGLVNSQQLDELKRRLEELRKEAARKARDYAEEFRNKLEYG" val=130

(A) BAX-CDP01 (BAX-targeting computationally designed protein 01) (designed binder) GADPKKVLDKARDQAENRVRELAQKLEELYKEARKLDLTQEERRKLEKRYKAAMEEAIKDIREAIRQAKQEADKLKKAGLVNSQQLKELKQRLNELAIAAALRAIGDAIEFRRKLQYG
(B) αBAK2 (designed binder) GADPKKVLDKADDQMENVVVTLKQELEELAKERRKLDLTQSEKIELKLRYIVAHLAAIGDIEEAIREAKEEADKLKKAGLVNSQQFAEFKRRLEELHKEADRKRRDYAEEFRNKLEYG
(C) αBAX1 (designed binder) GADPKKVLDKARDQAENRVRELAQKLEELYKEARKLDLTQEERRKLEKRYKAAMEEAIKDIHEAIEQAKEEADKLKDAGLVNEQQLKELKQRLNELAIAAAFRASGDTIEFRRKLQYG
(D) αBAX2 (designed binder) GADPKKVLDKARDQAENRVRELRQKLTELYKEARKLDLTQEERRKLIKRYKAAMNEAIKDIHEAIEQAKEEADKLKDAGLVNEQQLKELKQRLNEKALAAAFRASGDTWHARRKLQYG
Incoming: Reorder: Kd, max to min. Give the order by naming the labels one after another as requested.
Outgoing: C, D, B, A
(C: 3500 nM, D: 2300 nM, B: 133 nM, A: 50 nM)
